Taken from the NIST ThermoML archive (doi:10.1016/j.tca.2013.05.007).

- method: molar heat capacity at constant pressure
- condition_notes: 316.15 K; 101.33 kPa; Liquid; Large sample (1 g) DSC
value_kind: molar heat capacity at constant pressure (J/K/mol)

> print(dat)
                                   compound                                value.kind  unit.tag  data.value
1  CCCCn1cc[n+](C)c1.N#CN=C=[N-] [1-butyl-3-methylimidazolium dicyanamide]  molar heat capacity at constant pressure   J/K/mol         384
2  CCC[n+]1cccc(C)c1.O=S(=O)([N-]S(=O)(=O)C(F)(F)F)C(F)(F)F  molar heat capacity at constant pressure   J/K/mol         534
3  CCCC[n+]1cccc(C)c1.O=S(=O)([N-]S(=O)(=O)C(F)(F)F)C(F)(F)F  molar heat capacity at constant pressure   J/K/mol         566
4  CC[n+]1cccc(C)c1.O=S(=O)([N-]S(=O)(=O)C(F)(F)F)C(F)(F)F  molar heat capacity at constant pressure   J/K/mol         508
